I'd be grateful if you could share measured T/C for these entries.
# Test system: L1210 leukemia ip in BDF1 mice, survival T/C
# assay name: NCI In Vivo Anticancer Drug Screen. Data for tumor model L1210 Leukemia (intraperitoneal) in B6D2F1 (BDF1) mice
# run parameters: endpoint: mean survival time; dose: 200.0 mg/kg/injection; schedule: Q01DX001 (ip); vehicle: saline; higher = longer survival
Toxic doses and inconclusive results are not listed.

For orientation, consider the following solved cases.
{"molecule": "Clc1ccc(-c2nnc3c4ccccc4ccn23)cc1", "T/C": "93 % of control"}
{"molecule": "Nc1ccc(N=Nc2ccc(O)cc2)c(N)n1", "T/C": "107 % of control"}
{"molecule": "CCC[CH2][Ge]([CH2]CCC)([CH2]CCC)[N]1C(=O)c2ccccc2C1=O", "T/C": "96 % of control"}

Look at each molecule and report its T/C.
1. CC1NC(=S)NC(=O)C1CCSC(=N)N (stereo unspecified)
2. CC(C)OP1(=O)OCC(C)O1 (stereo unspecified)
3. COC(=O)c1cc(NS(=O)(=O)c2ccc(N)cc2)cc(C(=O)OC)c1

Resp:
1. 98 % of control
2. 98 % of control
3. 95 % of control

Look at each molecule and report its T/C.
1. COc1ccc(/C=C2/CN(c3ccc(C(=O)O)cc3)C(=O)C2=O)cc1
2. O=C(CSc1ccc([N+](=O)[O-])cc1)c1ccccc1

Resp:
98 % of control
91 % of control

Look at each molecule and report its T/C.
1. CC(=O)OCC1OC(n2c(=S)[nH]c3c(N)ncnc32)C(OC(C)=O)C1OC(C)=O (stereo unspecified)
2. CCC1(C)N=C(N)Nc2nc3ccccc3n21 (stereo unspecified)
3. CCCCCCCCCCCCCC(C)C

Resp:
95 % of control
94 % of control
102 % of control

Look at each molecule and report its T/C.
1. CCCCC(=O)c1ccc(C)cc1
2. Oc1ccc(/C=N/Nc2nnc(N/N=C/c3ccc(O)c(O)c3)c3ccccc23)cc1O
3. NC(=O)NC12CC3CC(CC(C3)C1)C2
4. CC12CCCC(C(C#N)C(N)=O)(C1)NC(=O)C2C#N (stereo unspecified)
5. O=C1CC(C(=O)O)C(C(=O)O)O1 (stereo unspecified)
6. CCOC(=O)c1ccccc1NC(c1ccccc1)c1ccc2cccnc2c1O (stereo unspecified)
7. O=P(O)(O)/C=C/c1ccccc1

Resp:
1. 98 % of control
2. 97 % of control
3. 89 % of control
4. 96 % of control
5. 90 % of control
6. 97 % of control
7. 91 % of control

Look at each molecule and report its T/C.
1. Cc1ccc(Nc2nc(N)nc(N)c2C=O)cc1C
2. CC1CCCC1=O (stereo unspecified)
3. O=C1OC(C(O)CO)C(O)C1O (stereo unspecified)
4. Clc1c2c(nc3ccccc13)CCCC2
5. O=C(Nc1nn[nH]n1)C(F)(F)F
6. O=C(OC1COC(Br)C(OC(=O)c2ccc([N+](=O)[O-])cc2)C1OC(=O)c1ccc([N+](=O)[O-])cc1)c1ccc([N+](=O)[O-])cc1 (stereo unspecified)

Resp:
100 % of control
93 % of control
100 % of control
95 % of control
103 % of control
96 % of control

Look at each molecule and report its T/C.
1. COc1ccc(OC)c2c(=O)c(C(=O)O)c[nH]c12
2. O=C1/C(=C/c2ccc(Cl)cc2)CCc2ccccc21

Resp:
["100 % of control", "101 % of control"]

====

# Test system: L1210 leukemia ip in BDF1 mice, survival T/C
# assay name: NCI In Vivo Anticancer Drug Screen. Data for tumor model L1210 Leukemia (intraperitoneal) in B6D2F1 (BDF1) mice
# run parameters: endpoint: mean survival time; dose: 12.5 mg/kg/injection; schedule: Q04DX002 (ip); vehicle: saline with Tween-80; higher = longer survival
Inconclusive results and toxic doses are left out.
parameter measured: T/C

For orientation, consider the following solved cases.
{"molecule": "CCC1(C)CCC2(C)C(CCC3C(C)(CO)CCCC32O)C1 (centres undefined)", "recorded measurement": "96 % of control"}
{"molecule": "CC[CH2][Sn]([CH2]CC)([CH2]CC)[CH2]Cc1ccncc1", "recorded measurement": "93 % of control"}
{"molecule": "N#CCCC(C#N)(c1cccnc1)N1CCOCC1 (centres undefined)", "recorded measurement": "98 % of control"}

Req: Lab note: need T/C for `COC(=O)C(Br)C(=O)OC` on L1210 leukemia ip in BDF1 mice, survival T/C, anyone have it?
Resp: 97 % of control

====

# Test system: L1210 leukemia ip in BDF1 mice, survival T/C
# assay name: NCI In Vivo Anticancer Drug Screen. Data for tumor model L1210 Leukemia (intraperitoneal) in B6D2F1 (BDF1) mice
# run parameters: endpoint: mean survival time; dose: 100.0 mg/kg/injection; schedule: Q01DX001 (ip); vehicle: saline; higher = longer survival
Toxic doses and inconclusive results are not listed.
I'd be grateful if you could share measured T/C for these entries.

For orientation, consider the following solved cases.
{"molecule": "Nc1ccc2oc3cccc(N)c3c(=O)c2c1", "T/C": "94 % of control"}
{"molecule": "O=C1/C(=C/c2ccc(Cl)cc2)CCc2ccccc21", "T/C": "101 % of control"}
{"molecule": "CCCCCCc1cccc(C)n1", "T/C": "94 % of control"}
{"molecule": "CC(=O)OC(C)COCc1ccccc1 (stereo not drawn)", "T/C": "107 % of control"}
{"molecule": "CC(C)C(C)(O)C(N)=O (stereo not drawn)", "T/C": "106 % of control"}
{"molecule": "COc1cc2c3c(c1O)C1(C=CC(=O)C=C1)CC3N(C)CC2 (stereo not drawn)", "T/C": "92 % of control"}
{"molecule": "CC(C)(C)CCN1C(=O)c2ccccc2C1=O", "T/C": "94 % of control"}
{"molecule": "CCCCC(=O)c1ccc(C)cc1", "T/C": "102 % of control"}
{"molecule": "COC(=O)c1ccccc1NCCO", "T/C": "101 % of control"}
{"molecule": "O=C1c2cc([N+](=O)[O-])ccc2NC1(c1c[nH]c2ccccc12)c1c[nH]c2ccc(Br)cc12 (stereo not drawn)", "T/C": "96 % of control"}

Look at each molecule and report its T/C.
1. CCCCCCCC(=O)N(CCN(N=O)C(=O)CCCCCCC)N=O
2. CC(/C=C/c1ccccc1)=N\NC(=O)NN
3. Cc1c(O)c(CN2CCOCC2)cc(CN2CCOCC2)c1O

Resp:
["95 % of control", "91 % of control", "86 % of control"]

====

# Tested on: L1210 leukemia ip in BDF1 mice, survival T/C
# assay name: NCI In Vivo Anticancer Drug Screen. Data for tumor model L1210 Leukemia (intraperitoneal) in B6D2F1 (BDF1) mice
# run parameters: endpoint: mean survival time; dose: 400.0 mg/kg/injection; schedule: Q01DX001 (ip); vehicle: carboxymethylcellulose (CMC); higher = longer survival
Inconclusive results and toxic doses are left out.
I'd be grateful if you could share measured T/C for these entries.

{"molecule": "COc1ccc(C=Nc2cccc(O)c2)cc1", "tested on": "L1210 leukemia ip in BDF1 mice, survival T/C", "T/C": "92 % of control"}
{"molecule": "OC1c2ccccc2C(O)C2C3C=CC(C3)C12 (configuration not stated)", "tested on": "L1210 leukemia ip in BDF1 mice, survival T/C", "T/C": "97 % of control"}
{"molecule": "CCc1ccc(N=Nc2ccc(CC)cc2)cc1", "tested on": "L1210 leukemia ip in BDF1 mice, survival T/C", "T/C": "101 % of control"}
{"molecule": "O=S1(=O)/C(=C\\C2CCCCC2)c2c1c(-c1ccccc1)c1ccccc1c2-c1ccccc1", "tested on": "L1210 leukemia ip in BDF1 mice, survival T/C", "T/C": "89 % of control"}
{"molecule": "CC1=NN(c2ccccc2)C(=O)C1N=Nc1ccc(S(=O)(=O)Nc2cc(C)nc(C)n2)cc1 (configuration not stated)", "tested on": "L1210 leukemia ip in BDF1 mice, survival T/C", "T/C": "95 % of control"}

Look at each molecule and report its T/C.
1. NC(=O)NNC(=O)NNC(N)=O
2. CCOC(=O)C(CNC(N)=O)(c1ccccc1)c1ccccc1
3. CC(=O)Nc1ccn(C2OC(COC(C)=O)C(OC(C)=O)C2OC(C)=O)c(=O)n1 (configuration not stated)
4. Cc1ccc(S(=O)(=O)Nc2ccc(Br)cc2)cc1
5. C1=CC(c2ccccc2)=C(c2ccccc2)C(c2ccccc2)C(c2ccccc2)=C1 (configuration not stated)
6. COc1cc2c(cc1OC)[C@@H]1Cc3ccc(OC)c(OC)c3CN1CC2

Resp:
1: 103 % of control; 2: 98 % of control; 3: 103 % of control; 4: 107 % of control; 5: 89 % of control; 6: 94 % of control

Req: Which measured T/C value corresponds to `COc1ccc(OC)c2c1C(=O)c1ccccc1C2=O` ?
Resp: 113 % of control
